Assay: MTD determination, administered daily for 5 days (preliminary studies for the H460 xenograft model)
Assay type: in vivo, nude mice (nu/nu)
Details: nude (nu/nu), mouse, in vivo, on the basis of weight loss and behavioral signs, female nude mice
Description: On the basis of the favorable in vitro data for these compounds, their anti-tumor activities in the H460 (NSCLC) human tumor xenograft model were evaluated. H460 cells (lx 10^6) were subcutaneously implanted in the flanks of pathogen-free homozygous female nude mice (nu/nu, Charles River Laboratories). […] On the basis of weight loss and behavioral signs, the MTDs of TH2565 and TH2566 were determined to be 2 mg/kg, respectively. […]
recorded_metric: MTD at 5 days (mg/kg)
Give the quantity in mg/kg, number only.

INPUT: Requested read-out: MTD at 5 days. Entry: CC(OP(=O)(N1CC1)N1CC1)c1ccc([N+](=O)[O-])cc1 (single isomer, unassigned)
OUTPUT: 2
